Catalogue of compounds with associated pIC50
Biological target: METTL3/METTL14 (Homo sapiens, UniProt Q86U44)
Sequence (Q86U44 whole entry, species assumed): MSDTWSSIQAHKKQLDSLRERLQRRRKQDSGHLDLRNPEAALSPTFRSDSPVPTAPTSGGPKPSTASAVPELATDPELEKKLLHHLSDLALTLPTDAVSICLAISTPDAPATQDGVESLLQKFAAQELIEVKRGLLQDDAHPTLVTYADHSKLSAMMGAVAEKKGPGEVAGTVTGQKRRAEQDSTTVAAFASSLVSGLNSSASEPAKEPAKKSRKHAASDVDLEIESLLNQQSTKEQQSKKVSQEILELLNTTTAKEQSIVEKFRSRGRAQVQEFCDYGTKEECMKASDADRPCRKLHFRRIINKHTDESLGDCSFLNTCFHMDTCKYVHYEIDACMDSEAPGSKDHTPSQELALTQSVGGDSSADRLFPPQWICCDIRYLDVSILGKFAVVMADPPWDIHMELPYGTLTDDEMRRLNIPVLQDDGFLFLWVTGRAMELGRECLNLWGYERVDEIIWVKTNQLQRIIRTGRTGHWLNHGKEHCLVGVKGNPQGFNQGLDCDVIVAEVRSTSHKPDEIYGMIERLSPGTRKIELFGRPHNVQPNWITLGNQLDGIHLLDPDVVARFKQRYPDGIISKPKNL
Sequence (Q9HCE5 whole entry partner, species assumed): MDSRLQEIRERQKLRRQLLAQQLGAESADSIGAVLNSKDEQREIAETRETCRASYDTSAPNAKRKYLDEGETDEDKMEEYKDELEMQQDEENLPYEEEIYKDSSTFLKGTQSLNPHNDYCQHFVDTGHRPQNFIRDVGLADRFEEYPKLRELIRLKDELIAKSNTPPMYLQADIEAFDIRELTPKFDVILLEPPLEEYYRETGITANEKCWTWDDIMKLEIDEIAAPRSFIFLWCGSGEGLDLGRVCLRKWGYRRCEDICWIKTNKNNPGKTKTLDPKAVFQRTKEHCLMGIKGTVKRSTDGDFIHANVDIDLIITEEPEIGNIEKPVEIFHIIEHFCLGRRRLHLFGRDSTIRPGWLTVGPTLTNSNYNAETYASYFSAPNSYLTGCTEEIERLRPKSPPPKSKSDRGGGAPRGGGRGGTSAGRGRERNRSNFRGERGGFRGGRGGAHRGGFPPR
Experiment: METTL3-14 Standard Enzyme Assay (METTL3 biochemical assay)
Settings: METTL3 biochemical assay; read-out: METTL3 IC50
pIC50: −log10 of the molar value.

Ask | # lookup: pIC50 of Nc1ccc2ccc(CC[C@H]3C[C@@H](n4cc([C@H]5CCOC5)c5c(N)ncnc54)[C@H](O)[C@@H]3O)cc2n1
Reply | 6.00 to 7.00

Ask | Another compound to check: Nc1ncnc2c1ccn2[C@@H]1C[C@H](CCc2ccc3scnc3c2)[C@@H](O)[C@H]1O
Reply | < 6.00

Ask | How about Nc1ncnc2c1ccn2[C@H]1C[C@H](O)[C@@H](COc2ccc3ccc(N4CCC4)nc3c2)O1 ?
Reply | > 8.00

Ask | Same read-out for CCc1cc(N)c2ccc(OC[C@H]3O[C@@H](n4cc(Br)c5c(N)ncnc54)[C@@H](F)[C@@H]3O)cc2n1 ?
Reply | 7.00 to 8.00

Ask | Proceed to CCNc1ccc2ccc(OC[C@H]3O[C@@H](n4ccc5c(N)ncnc54)[C@@H](F)[C@@H]3O)cc2n1
Reply | > 8.00

Ask | Continue with Nc1ncnc2c1ccn2[C@@H]1C[C@H](CCc2cccc(NC(=O)C3CC3)c2)[C@@H](O)[C@H]1O
Reply | < 6.00

Ask | And then Cn1ccnc1-c1ccc2ccc(OC[C@H]3O[C@@H](n4cc(Br)c5c(N)ncnc54)[C@@H](F)[C@@H]3O)cc2n1 , what is it?
Reply | < 6.00

The origin of these recorded values is patent US20230027361A1.
